# Target Under Test: human CD74, naturally expressed on cells (Raji, Daudi, M4A4, NCI-H747 cells; human tonsil tissue) (human) (UniProt P04233)
# Test Summary: cell-based or functional assay
Endpoint: % kill of NCI-H747 cells at 10 µg/mL
Write the numeric value and append its unit.

{"Binder": "HuMab-CD74-005-mcMMAF (antibody, IgG1, V domains shown, drug-linker mcMMAF alkylated to the cysteines of the reduced antibody (DAR 3.9-4.0), Antibody-drug conjugate of HuMab-CD74-005 (IgG1,kappa); also called mcMMAF-conjugate of HuMab-CD74-005) VH: QVQLVESGGGVVQPGRSLRLSCAASGFTFSSYAMHWVRQAPGKGLEWVAVISYDGSNKYYADSVKGRFTISRDNSKNTLYLQMNSLRAEDTAVYYCASGRYYGSGSYSSYFDYWGQGTLVTVSS VL: DIQMTQSPSSLSASVGDRVTITCRASQGISSWLAWFQQKPEKAPKSLIYAASSLQSGVPSRFSGSGSGTDFTLTISSLQPEDFATYYCQQYNSYPLTFGGGTKVEIK", "Endpoint": "% kill of NCI-H747 cells at 10 µg/mL", "Observed": "5%"}
{"Binder": "HuMab-CD74-011-mcMMAF (antibody, IgG1, V domains shown, drug-linker mcMMAF alkylated to the cysteines of the reduced antibody (DAR 3.9 by HIC), Antibody-drug conjugate of HuMab-CD74-011 (IgG1,kappa)) VH: QVQLVESGGGVVQPGRSLRLSCAASGFTFSSYGMHWVRQAPDKGLEWVAVIWYDGSNKYYADSVKGRFTISRDNSKNTLYLQMNSLRAEDTAVYYCARGGTLVRGAMYGTDVWGQGTTVTVSS VL: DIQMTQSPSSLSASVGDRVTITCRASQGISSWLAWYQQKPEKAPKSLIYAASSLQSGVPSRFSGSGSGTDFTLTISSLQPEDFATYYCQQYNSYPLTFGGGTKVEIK", "Endpoint": "% kill of NCI-H747 cells at 10 µg/mL", "Observed": "17%"}
{"Binder": "HuMab-CD74-005-vcMMAE (antibody, IgG1, V domains shown, drug-linker vcMMAE alkylated to the cysteines of the reduced antibody (DAR 3.9-4.0), Antibody-drug conjugate of HuMab-CD74-005 (IgG1,kappa); also called vcMMAE-conjugate of HuMab-CD74-005) VH: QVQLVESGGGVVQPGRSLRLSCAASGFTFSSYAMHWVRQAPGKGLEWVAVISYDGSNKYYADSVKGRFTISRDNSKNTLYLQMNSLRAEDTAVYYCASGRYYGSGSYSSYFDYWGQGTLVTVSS VL: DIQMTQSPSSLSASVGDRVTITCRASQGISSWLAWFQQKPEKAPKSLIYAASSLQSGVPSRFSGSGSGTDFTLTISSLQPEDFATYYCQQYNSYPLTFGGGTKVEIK", "Endpoint": "% kill of NCI-H747 cells at 10 µg/mL", "Observed": "41%"}
{"Binder": "HuMab-CD74-006-mcMMAF (antibody, IgG1, V domains shown, drug-linker mcMMAF alkylated to the cysteines of the reduced antibody (DAR 3.7-4.1), Antibody-drug conjugate of HuMab-CD74-006 (IgG1,kappa)) VH: QVQLVESGGGVVQPGRSLRLSCAASGFTFSSYAMHWVRQAPGKGLEWVAVISYDGSIKYYADSVKGRFTISRDNSKNTLYLQMNSLRVEDTAVFYCARGREITSQNIVILLDYWGQGTLVTVTS VL: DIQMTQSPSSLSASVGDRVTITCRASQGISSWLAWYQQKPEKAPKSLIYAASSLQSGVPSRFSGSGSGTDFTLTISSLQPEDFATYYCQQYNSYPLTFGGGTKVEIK", "Endpoint": "% kill of NCI-H747 cells at 10 µg/mL", "Observed": "21%"}
{"Binder": "HuMab-CD74-006-vcMMAE (antibody, IgG1, V domains shown, drug-linker vcMMAE alkylated to the cysteines of the reduced antibody (DAR 4.0), Antibody-drug conjugate of HuMab-CD74-006 (IgG1,kappa); also called vcMMAE-conjugated HuMab-CD74-006) VH: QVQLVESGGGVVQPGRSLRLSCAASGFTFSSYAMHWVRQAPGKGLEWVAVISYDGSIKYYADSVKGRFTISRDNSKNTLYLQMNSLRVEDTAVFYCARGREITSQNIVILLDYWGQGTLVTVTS VL: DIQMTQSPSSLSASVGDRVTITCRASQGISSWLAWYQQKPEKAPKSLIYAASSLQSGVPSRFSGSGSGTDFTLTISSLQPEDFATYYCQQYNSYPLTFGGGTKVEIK", "Endpoint": "% kill of NCI-H747 cells at 10 µg/mL", "Observed": "49%"}

From here, focus on the item given below.
QUERY: Report % kill of NCI-H747 cells at 10 µg/mL, nothing else, for this binder: HuMab-CD74-011-vcMMAE (antibody, IgG1, V domains shown, drug-linker vcMMAE alkylated to the cysteines of the reduced antibody (DAR 3.8-3.9), Antibody-drug conjugate of HuMab-CD74-011 (IgG1,kappa); also called vcMMAE-conjugated HuMab-CD74-011) VH: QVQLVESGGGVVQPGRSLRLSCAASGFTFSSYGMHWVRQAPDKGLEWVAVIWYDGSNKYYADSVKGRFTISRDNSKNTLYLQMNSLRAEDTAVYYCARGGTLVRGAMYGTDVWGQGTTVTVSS VL: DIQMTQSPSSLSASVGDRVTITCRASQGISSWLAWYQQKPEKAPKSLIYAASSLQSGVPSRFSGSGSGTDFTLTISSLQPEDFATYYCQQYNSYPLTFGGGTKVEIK
RESULT: 40%

Cited source for all entries: patent US20170173151A1
